Values compiled from patent US7642287B2.

- TEST PROTOCOL: Pharmacokinetic two-way cross-over study in fasted beagle dogs (plasma pravastatin, LC/MS)
- Type: in vivo
- SETUP CONDITIONS: beagle, dog, plasma, po, 0.95 mg/kg, Mean of six fasted beagle dogs; mean dose as free acid 0.95 mg/kg (calcium salt softgel), 0.85 mg/kg (PRAVACHOL)
Counter-ions that a name gives are not always drawn.
PARAMETER: AUC(0-t) (ng·h/mL)
Give bare numbers, in ng·h/mL.

Just so you know, measured AUC(0-t) for CC[C@H](C)C(=O)O[C@H]1C[C@H](O)C=C2C=C[C@H](C)[C@H](CC[C@@H](O)C[C@@H](O)CC(=O)O)[C@H]21 [pravastatin calcium salt] came out at 432
